% Kill, MCF7 cells for assorted binders
# target: T1, human prolactin receptor (PRLR) (human, UniProt P16471 25-622)
# T1 sequence: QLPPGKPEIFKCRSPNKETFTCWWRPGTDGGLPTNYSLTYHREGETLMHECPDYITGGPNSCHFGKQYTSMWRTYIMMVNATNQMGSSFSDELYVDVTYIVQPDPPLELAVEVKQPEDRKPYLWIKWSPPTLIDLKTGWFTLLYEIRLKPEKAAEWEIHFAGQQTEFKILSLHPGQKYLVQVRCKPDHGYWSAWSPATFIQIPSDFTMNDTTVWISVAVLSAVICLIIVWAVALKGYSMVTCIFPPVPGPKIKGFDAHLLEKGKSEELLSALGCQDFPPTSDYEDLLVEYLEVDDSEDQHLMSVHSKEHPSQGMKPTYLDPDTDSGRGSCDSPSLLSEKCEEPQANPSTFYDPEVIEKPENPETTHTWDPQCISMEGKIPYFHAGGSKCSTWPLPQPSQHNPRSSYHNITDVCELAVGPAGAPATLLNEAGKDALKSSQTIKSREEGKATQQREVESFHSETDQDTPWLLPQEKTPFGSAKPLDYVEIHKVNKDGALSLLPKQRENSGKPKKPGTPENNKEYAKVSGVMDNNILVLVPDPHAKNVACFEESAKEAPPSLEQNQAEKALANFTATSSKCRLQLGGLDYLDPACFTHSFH
# measurementDescription: cell-based or functional assay
A number alone suffices; assume %.

H1H6960N-DM1 (antibody, human IgG1, V domains shown, DM1 conjugated through SMCC linker; attachment residues not stated) VH: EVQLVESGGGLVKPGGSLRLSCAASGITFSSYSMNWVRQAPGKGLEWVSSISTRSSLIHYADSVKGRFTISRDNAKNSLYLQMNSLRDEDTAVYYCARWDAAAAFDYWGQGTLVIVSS VL: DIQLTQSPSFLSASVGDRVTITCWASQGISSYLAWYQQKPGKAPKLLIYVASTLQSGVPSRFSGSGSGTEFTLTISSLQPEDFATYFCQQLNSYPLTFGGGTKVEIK
77

Let us move to another entry and its % Kill, MCF7 cells.
Look at this binder and give its reported % Kill, MCF7 cells. H1H6953N-DM1 (antibody, human IgG1, V domains shown, DM1 conjugated through SMCC linker; attachment residues not stated) VH: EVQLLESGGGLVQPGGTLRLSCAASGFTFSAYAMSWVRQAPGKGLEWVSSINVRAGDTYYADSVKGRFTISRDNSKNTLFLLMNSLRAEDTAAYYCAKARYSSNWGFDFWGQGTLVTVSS VL: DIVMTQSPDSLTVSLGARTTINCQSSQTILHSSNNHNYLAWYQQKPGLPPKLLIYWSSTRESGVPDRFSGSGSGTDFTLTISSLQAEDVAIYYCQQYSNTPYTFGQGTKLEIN
55

Reference source for all entries: patent US20180185504A1
